conditions: bacteroides fragilis, 12 h, 2 µM
Description: The drug is tested on Bacteroides fragilis strain: NCTC 9343 for biotransformation. The drug concentrations were measured before and after a 12-h incubation by liquid-chromatography-coupled mass spectrometry (LC–MS)
Reported Metric: Bacterial Biotransformation

Here is how some compounds turned out for Bacterial Biotransformation.
- Compound: "OCCOCCN1CCN(C2=Nc3ccccc3Sc3ccccc32)CC1 [QUETIAPINE]"
  Result: "Compound NOT metabolized"
- Compound: "CC[C@@]1(O)C(=O)OCc2c1cc1n(c2=O)Cc2cc3c(CN(C)C)c(O)ccc3nc2-1 [TOPOTECAN]"
  Result: "Compound NOT metabolized"
- Compound: "CC(=O)OCC(=O)[C@@]1(O)[C@@H](C)C[C@H]2[C@@H]3CCC4=CC(=O)C=C[C@]4(C)[C@@]3(F)[C@@H](O)C[C@@]21C [BETAMETHASONE ACETATE]"
  Result: "Compound metabolized"
- Compound: "NC(=O)N1c2ccccc2CC(=O)c2ccccc21 [OXCARBAZEPINE]"
  Result: "Compound NOT metabolized"
- Compound: "Nc1nc(N)nc(-c2cc(Cl)ccc2Cl)n1.O=C(O)/C=C\\C(=O)O [IRSOGLADINE MALEATE]"
  Result: "Compound NOT metabolized"
- Compound: "C=CCN1CC[C@]23c4c5ccc(O)c4O[C@H]2C(=O)CC[C@@]3(O)[C@H]1C5 [NALOXONE]"
  Result: "Compound metabolized"
- Compound: "CN1[C@@H]2CC[C@H]1C[C@@H](OC(=O)c1c[nH]c3ccccc13)C2 [TROPISETRON]"
  Result: "Compound NOT metabolized"
- Compound: "CCOc1ccccc1OCCN[C@H](C)Cc1ccc(OC)c(S(N)(=O)=O)c1.Cl [TAMSULOSIN HYDROCHLORIDE]"
  Result: "Compound NOT metabolized"
- Compound: "CCCN1C[C@H](CSC)C[C@@H]2c3cccc4[nH]cc(c34)C[C@H]21.CS(=O)(=O)O [PERGOLIDE MESYLATE]"
  Result: "Compound NOT metabolized"
- Compound: "CN1C[C@H](C(=O)N[C@]2(C)O[C@@]3(O)[C@@H]4CCCN4C(=O)[C@H](Cc4ccccc4)N3C2=O)C=C2c3cccc4[nH]cc(c34)C[C@H]21.CN1C[C@H](C(=O)N[C@]2(C)O[C@@]3(O)[C@@H]4CCCN4C(=O)[C@H](Cc4ccccc4)N3C2=O)C=C2c3cccc4[nH]cc(c34)C[C@H]21.O=C(O)C(O)C(O)C(=O)O [ERGOTAMINE TARTRATE]"
  Result: "Compound metabolized"

Next, consider the following compound.
Record COc1ccc2cc([C@H](C)C(=O)O)ccc2c1 [NAPROXEN] , field Bacterial Biotransformation: Compound NOT metabolized
